For each of the compounds below, state its MIC B. subtilis.
system: B. subtilis DSM 10; test: MIC against bacteria (antimicrobial assay); assay type: cell-based, Bacillus subtilis; conditions: supplement CSV, decimal comma, unit not given; in µg/mL

Some entries whose results are on file:
Task: # get_value(readout='MIC B. subtilis', item= CC(=O)[C@H](C)C[C@@H](C)C[C@H](C)C(=O)C1=C(O)/C(=C/c2ccccc2)NC1=O )
Output: 66,7

Task: Next record, please: CC[C@H](C)C[C@@H](C)C[C@H](C)C(=O)C1=C(O)/C(=C/c2ccccc2)NC1=O
Output: 4,2

Task: And what about the compound C[C@H](C[C@@H](C)[C@H](C)OC=O)C[C@H](C)C(=O)C1=C(O)/C(=C/c2ccccc2)NC1=O ?
Output: 33,3

Task: Now the compound C[C@H](C[C@@H](C)[C@H](C)O)C[C@H](C)C(=O)C1=C(O)/C(=C/c2ccccc2)NC1=O
Output: 66,7

Please examine the following record next.
Task: Can you look up the measured MIC B. subtilis of CC[C@H](C)[C@@H]1O[C@H](c2c(O)c(-c3ccccc3)cn(O)c2=O)[C@@H](C)C[C@@H]1C for me?
Output: 8,3
